# measured.target: mouse TMEM16A mutant I636A (Mus musculus, UniProt Q8BHY3, I636A)
# Construct: expressed in transfected cells; host or cells: HEK293T
# procedure.summary: Inside-out patch recording of 1PBC block, mutant I636A
# Type: cell-based
# condition.description: 140 mV; 15 µM Ca2+
endpoint.label: IC50

>>> recorded_result("N#Cc1c(C(F)(F)F)cc(O)n2c1nc1ccccc12")
"4.5 µM"

====

# measured.target: mouse TMEM16A mutant Y598A (Mus musculus, UniProt Q8BHY3, Y598A)
# Construct: expressed in transfected cells; host or cells: HEK293T
# procedure.summary: Inside-out patch recording of 1PBC block, mutant Y598A
# Type: cell-based
# condition.description: Y598A; V -80 mV
pIC50: −log10 of the molar value.
endpoint.label: pIC50

>>> recorded_result("N#Cc1c(C(F)(F)F)cc(O)n2c1nc1ccccc12 [1PBC]")
4.95

====

# measured.target: mouse TMEM16A mutant R515A (Mus musculus, UniProt Q8BHY3, R515A)
# Construct: expressed in transfected cells; host or cells: HEK293T
# procedure.summary: Inside-out patch recording of 1PBC block, mutant R515A
# Type: cell-based
# condition.description: R515A; V 20 mV
pIC50: −log10 of the molar value.
endpoint.label: pIC50

>>> recorded_result("N#Cc1c(C(F)(F)F)cc(O)n2c1nc1ccccc12")
3.96

====

# measured.target: wild-type mouse TMEM16A (Mus musculus, UniProt Q8BHY3)
# Construct: expressed in transfected cells; host or cells: HEK293T
# Sequence (Q8BHY3 1-960): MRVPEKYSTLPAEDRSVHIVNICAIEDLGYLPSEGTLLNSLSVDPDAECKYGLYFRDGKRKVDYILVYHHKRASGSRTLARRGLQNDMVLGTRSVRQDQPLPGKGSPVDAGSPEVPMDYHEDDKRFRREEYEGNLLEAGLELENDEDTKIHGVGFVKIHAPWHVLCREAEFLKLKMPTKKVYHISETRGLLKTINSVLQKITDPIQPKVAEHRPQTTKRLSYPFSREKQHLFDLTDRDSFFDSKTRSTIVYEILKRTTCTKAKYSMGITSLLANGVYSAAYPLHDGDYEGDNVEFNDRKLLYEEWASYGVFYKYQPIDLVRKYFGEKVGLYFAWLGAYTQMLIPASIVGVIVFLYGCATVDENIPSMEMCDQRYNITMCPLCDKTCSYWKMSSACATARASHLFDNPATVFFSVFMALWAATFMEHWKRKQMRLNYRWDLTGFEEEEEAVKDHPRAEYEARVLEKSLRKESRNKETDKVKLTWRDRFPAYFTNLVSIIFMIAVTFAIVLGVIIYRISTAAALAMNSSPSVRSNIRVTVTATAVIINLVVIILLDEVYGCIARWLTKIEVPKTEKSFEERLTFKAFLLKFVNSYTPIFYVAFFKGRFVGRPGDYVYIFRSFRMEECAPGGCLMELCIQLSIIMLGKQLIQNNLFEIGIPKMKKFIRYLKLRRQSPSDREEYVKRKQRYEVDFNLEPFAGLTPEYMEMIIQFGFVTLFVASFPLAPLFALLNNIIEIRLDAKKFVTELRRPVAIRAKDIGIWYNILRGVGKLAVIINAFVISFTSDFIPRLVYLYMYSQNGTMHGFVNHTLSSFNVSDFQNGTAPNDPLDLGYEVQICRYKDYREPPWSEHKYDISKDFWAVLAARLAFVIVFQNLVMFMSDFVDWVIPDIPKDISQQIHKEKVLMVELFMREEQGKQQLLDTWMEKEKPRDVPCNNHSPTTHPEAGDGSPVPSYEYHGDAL
# procedure.summary: Inside-out patch recording of 1PBC block, wild-type TMEM16A
# Format: cell-based
# condition.description: 140 mV; 2 µM Ca2+
endpoint.label: IC50 (nM)

>>> recorded_result("N#Cc1c(C(F)(F)F)cc(O)n2c1nc1ccccc12")
2410

====

# measured.target: mouse TMEM16A mutant V543A (Mus musculus, UniProt Q8BHY3, V543A)
# Construct: expressed in transfected cells; host or cells: HEK293T
# Sequence (Q8BHY3 1-960 V543A): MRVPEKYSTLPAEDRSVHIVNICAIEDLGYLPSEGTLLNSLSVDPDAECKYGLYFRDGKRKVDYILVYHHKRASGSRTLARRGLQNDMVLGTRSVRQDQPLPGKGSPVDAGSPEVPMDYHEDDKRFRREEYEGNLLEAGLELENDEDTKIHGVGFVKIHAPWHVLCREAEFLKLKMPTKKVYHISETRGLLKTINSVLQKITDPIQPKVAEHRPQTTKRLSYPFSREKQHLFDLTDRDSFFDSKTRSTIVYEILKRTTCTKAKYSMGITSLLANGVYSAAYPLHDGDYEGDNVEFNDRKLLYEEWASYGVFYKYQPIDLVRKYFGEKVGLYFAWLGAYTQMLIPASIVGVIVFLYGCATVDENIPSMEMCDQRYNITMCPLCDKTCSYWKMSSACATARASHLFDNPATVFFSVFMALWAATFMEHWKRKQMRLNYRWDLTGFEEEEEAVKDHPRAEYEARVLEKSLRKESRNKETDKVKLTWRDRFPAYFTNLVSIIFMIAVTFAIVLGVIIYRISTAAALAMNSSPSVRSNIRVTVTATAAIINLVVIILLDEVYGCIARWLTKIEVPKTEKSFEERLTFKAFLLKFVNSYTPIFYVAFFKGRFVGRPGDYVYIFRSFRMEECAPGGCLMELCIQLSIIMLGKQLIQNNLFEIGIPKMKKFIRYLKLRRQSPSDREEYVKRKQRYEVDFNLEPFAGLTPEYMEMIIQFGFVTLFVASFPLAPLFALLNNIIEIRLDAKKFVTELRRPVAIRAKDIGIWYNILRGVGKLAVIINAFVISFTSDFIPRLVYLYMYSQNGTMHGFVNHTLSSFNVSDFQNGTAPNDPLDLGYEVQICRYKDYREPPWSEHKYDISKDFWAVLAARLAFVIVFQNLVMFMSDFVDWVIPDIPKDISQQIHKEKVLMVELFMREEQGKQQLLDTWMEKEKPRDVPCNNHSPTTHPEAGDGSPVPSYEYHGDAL
# procedure.summary: Inside-out patch recording of 1PBC block, mutant V543A
# Format: cell-based
# condition.description: 20 mV; 15 µM Ca2+
endpoint.label: IC50 (µM)

>>> recorded_result("N#Cc1c(C(F)(F)F)cc(O)n2c1nc1ccccc12")
9.55

====

# measured.target: mouse TMEM16A mutant P595A (Mus musculus, UniProt Q8BHY3, P595A)
# Construct: expressed in transfected cells; host or cells: HEK293T
# Sequence (Q8BHY3 1-960 P595A): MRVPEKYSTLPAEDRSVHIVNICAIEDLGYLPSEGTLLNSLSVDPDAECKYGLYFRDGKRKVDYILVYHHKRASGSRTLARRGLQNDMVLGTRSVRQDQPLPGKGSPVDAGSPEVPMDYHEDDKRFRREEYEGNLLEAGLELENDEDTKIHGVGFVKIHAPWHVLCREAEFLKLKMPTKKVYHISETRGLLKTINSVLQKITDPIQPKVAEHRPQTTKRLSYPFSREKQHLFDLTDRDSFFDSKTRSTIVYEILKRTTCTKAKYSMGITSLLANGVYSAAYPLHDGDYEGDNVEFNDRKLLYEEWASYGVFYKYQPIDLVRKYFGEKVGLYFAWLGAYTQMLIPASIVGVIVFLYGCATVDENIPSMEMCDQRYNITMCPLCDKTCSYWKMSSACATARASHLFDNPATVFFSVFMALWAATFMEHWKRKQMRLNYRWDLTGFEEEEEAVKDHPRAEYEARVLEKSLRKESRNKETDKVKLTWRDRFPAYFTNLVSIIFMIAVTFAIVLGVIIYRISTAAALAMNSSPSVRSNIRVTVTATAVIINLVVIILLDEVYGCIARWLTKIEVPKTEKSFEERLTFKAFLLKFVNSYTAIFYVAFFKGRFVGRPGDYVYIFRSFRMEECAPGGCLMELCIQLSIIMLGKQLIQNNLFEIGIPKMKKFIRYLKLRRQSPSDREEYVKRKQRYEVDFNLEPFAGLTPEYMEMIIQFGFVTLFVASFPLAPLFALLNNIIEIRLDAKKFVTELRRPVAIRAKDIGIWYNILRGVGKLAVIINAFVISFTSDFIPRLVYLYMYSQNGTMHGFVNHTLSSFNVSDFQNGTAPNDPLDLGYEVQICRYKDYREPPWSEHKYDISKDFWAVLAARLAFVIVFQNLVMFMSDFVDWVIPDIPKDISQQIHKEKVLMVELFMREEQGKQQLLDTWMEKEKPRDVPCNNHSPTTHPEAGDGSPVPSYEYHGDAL
# procedure.summary: Inside-out patch recording of 1PBC block, mutant P595A
# Assay type: cell-based
# condition.description: P595A; V -120 mV
endpoint.label: IC50 (µM)

>>> recorded_result("N#Cc1c(C(F)(F)F)cc(O)n2c1nc1ccccc12")
9.33

====

# measured.target: mouse TMEM16A mutant I636A (Mus musculus, UniProt Q8BHY3, I636A)
# Construct: expressed in transfected cells; host or cells: HEK293T
# procedure.summary: Inside-out patch recording of 1PBC block, mutant I636A
# Format: cell-based
# condition.description: 100 mV; 15 µM Ca2+
pIC50: −log10 of the molar value.
endpoint.label: pIC50

>>> recorded_result("N#Cc1c(C(F)(F)F)cc(O)n2c1nc1ccccc12")
5.41
